- Test system: C8161 human melanoma cells
- protocol_details: In vitro invasion assay (MICS), laminin/collagen IV/gelatin matrix-coated filter
- Assay type: cell-based
- condition_set: 3, 20 and 50 μg/mL, 48 hr
assay_metric: Percent Inhibition of invasive potential

CN(C)C1C(=O)C(C#N)=C(O)C2(O)C(=O)C3=C(O)c4c(O)cccc4C(C)(O)C3CC12 (stereo not drawn) [CMT-2, tetracyclinonitrile] : ˜10%
CC1(O)c2cccc(O)c2C(=O)C2=C(O)C3C(=O)C(C(N)=O)=C(O)CC3CC21 (stereo not drawn) [CMT-7] : 15-55%
C[C@H]1c2cccc(O)c2C(=O)C2=C(O)[C@]3(O)C(=O)C(C(N)=O)=C(O)[C@@H](N(C)C)[C@@H]3[C@@H](O)[C@@H]21 [Doxycycline, 6α-deoxy-5-hydroxy-tetracycline, reference compound] : 12-79%
